Target: T1, human chemokine (C-C motif) receptor 8 (CCR8) (human, UniProt P51685 1-355)
T1 construct: On human peripheral blood lymphocytes / PBMC (native) or on human CCR8 GFP-transfected Ba/F3 cells; also called hCCR8; human CCR8
T1 sequence (P51685 whole entry): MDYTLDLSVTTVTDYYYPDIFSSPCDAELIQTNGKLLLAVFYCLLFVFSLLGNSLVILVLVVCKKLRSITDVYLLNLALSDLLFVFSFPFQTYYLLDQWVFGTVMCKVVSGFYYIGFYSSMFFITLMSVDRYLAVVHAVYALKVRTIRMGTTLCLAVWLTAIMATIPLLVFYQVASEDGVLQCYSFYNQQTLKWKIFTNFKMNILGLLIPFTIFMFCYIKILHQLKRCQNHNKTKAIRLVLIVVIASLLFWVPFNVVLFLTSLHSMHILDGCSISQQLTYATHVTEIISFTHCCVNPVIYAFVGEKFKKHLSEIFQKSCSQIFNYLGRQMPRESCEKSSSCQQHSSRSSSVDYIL
Assay: flow cytometry blocking, PBMC CCR8+ CD4+ cells; competitor PE-AB11 (its MFI is read)
# MFI annotations

See these solved cases before continuing.
>  <BINDER>
AB14 (antibody, V domains shown, Hybridoma monoclonal; also called antibody 14; clone 14) VH: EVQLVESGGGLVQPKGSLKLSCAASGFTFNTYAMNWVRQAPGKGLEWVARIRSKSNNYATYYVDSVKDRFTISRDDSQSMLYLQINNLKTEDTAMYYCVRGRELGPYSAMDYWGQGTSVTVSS VL: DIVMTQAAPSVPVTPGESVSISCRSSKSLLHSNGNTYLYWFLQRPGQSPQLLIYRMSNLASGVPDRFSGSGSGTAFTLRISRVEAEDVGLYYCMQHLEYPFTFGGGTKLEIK

>  <REPORTED_MEASUREMENT>
501

$$$$
>  <BINDER>
AB10 (antibody, V domains shown, Hybridoma monoclonal; also called antibody 10; clone 10) VH: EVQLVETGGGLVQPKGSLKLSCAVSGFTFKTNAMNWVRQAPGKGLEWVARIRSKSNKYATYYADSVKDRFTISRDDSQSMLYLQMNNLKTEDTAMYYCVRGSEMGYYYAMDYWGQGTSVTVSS VL: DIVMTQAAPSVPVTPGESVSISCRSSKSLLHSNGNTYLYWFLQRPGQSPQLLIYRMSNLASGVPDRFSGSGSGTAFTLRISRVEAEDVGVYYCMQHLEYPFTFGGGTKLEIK

>  <REPORTED_MEASUREMENT>
545

$$$$

Please give the measured MFI for this binder: AB3 (antibody, V domains shown, Hybridoma monoclonal; also called antibody 3; clone 3) VH: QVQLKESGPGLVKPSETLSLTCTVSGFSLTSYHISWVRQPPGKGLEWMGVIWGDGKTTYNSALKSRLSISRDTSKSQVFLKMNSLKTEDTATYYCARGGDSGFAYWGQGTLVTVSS VL: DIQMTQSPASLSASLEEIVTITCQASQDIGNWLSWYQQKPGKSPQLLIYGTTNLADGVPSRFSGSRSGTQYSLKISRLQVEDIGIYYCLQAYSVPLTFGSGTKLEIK
941

Please give the measured MFI for this binder: AB15 (antibody, V domains shown, Hybridoma monoclonal; also called antibody 15; clone 15) VH: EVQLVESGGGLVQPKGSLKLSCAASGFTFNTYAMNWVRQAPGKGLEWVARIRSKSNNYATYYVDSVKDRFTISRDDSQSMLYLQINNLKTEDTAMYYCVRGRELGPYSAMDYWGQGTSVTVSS VL: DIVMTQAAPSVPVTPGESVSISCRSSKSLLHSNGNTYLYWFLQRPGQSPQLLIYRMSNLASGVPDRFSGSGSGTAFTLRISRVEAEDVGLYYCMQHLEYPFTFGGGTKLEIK
713

Please give the measured MFI for this binder: AB4 (antibody, V domains shown, Hybridoma monoclonal; also called antibody 4; clone 4) VH: QVQLKESGPGLVKPSETLSLTCTVSGFSLTGYHVSWVRQPPGKGLEWMGVIWGDGRTTYNSALKSRLSISRDTSKSQVFLKMSSLKTEDTATYYCARGGDSGFAYWGQGTLVTVSS VL: DIQMTQSPASLSASLEEIVTITCQASQDIGNWLSWYQQKPGKSPQLLIYGATSLADGVPSRFSGSRSGTQFSLKISRLQVEDIGIYYCLQAYIVPLTFGSGTKLESK
1020

Measured values drawn from patent US20240360228A1 for this set.
